Measured values drawn from patent US20240415914A1 for this set.

Assay Protocol: Stability of cannabinoid and Vitamin E components of Beverage 1 (AB White) stored at 8° C. and 21-25° C., LCMSMS over 570 days
Format: physicochemical
Experimental Parameters: beverage stored at 21-25° C., day 420
Please assign a class to every record based on measured Stability in AB White, 21-25° C. (content by LCMSMS), with ranges label 0 (below 0.5 µg/mL), label 1 (0.5 µg/mL to below 3 µg/mL), label 2 (3 µg/mL or more)

Compound	Answer Label
CCCc1cc(O)c2c(c1)OC(C)(C)[C@@H]1CCC(C)=C[C@@H]21 [THCV, delta-9-tetrahydrocannabivarin]	label 2
C=C(C)[C@@H]1CCC(C)=C[C@H]1c1c(O)cc(CCCCC)c(C(=O)O)c1O [CBDA, cannabidiolic acid]	label 1
CCCCCc1cc(O)c(C/C=C(\C)CCC=C(C)C)c(O)c1 [CBG, cannabigerol]	label 2
CCCCCc1cc(O)c2c(c1)OC1(C)CCC3C1C2C3(C)C (stereo not drawn) [CBL, cannabicyclol]	label 1
CCCCCc1cc2c(c(O)c1C(=O)O)[C@@H]1C=C(C)CC[C@H]1C(C)(C)O2 [D9 THCA, delta-9-tetrahydrocannabinolic acid]	label 1
CCCCCc1cc(O)c2c(c1)OC(C)(C)c1ccc(C)cc1-2 [CBN, cannabinol]	label 1
C=C(C)[C@@H]1CCC(C)=C[C@H]1c1c(O)cc(CCC)cc1O [CBDV, cannabidivarin]	label 0
CCCCCc1cc(O)c2c(c1)OC(C)(CCC=C(C)C)C=C2 (stereo not drawn) [CBC, cannabichromene]	label 0
CCCCCc1cc(O)c2c(c1)OC(C)(C)[C@@H]1CCC(C)=C[C@@H]21 [D9 THC, delta-9-tetrahydrocannabinol, reference compound]	label 2

---

Assay type: physicochemical
Experimental Parameters: stored at room temperature (21-25° C.), day 16
Quick rule for you: Stability in Powder Concentrate (content by LCMSMS) under 1 mg/g powder gets Met, anything else gets Not met.

Molecule	Answer Label
CC(=O)Oc1c(C)c(C)c2c(c1C)CCC(C)(CCC[C@H](C)CCC[C@H](C)CCCC(C)C)O2 (stereo partly drawn) [α-Tocopheryl acetate]	Not met
C=C(C)[C@@H]1CCC(C)=C[C@H]1c1c(O)cc(CCCCC)c(C(=O)O)c1O [CBDA, cannabidiolic acid]	Met
Cc1c(C)c2c(c(C)c1O)CC[C@@](C)(CCC[C@H](C)CCC[C@H](C)CCCC(C)C)O2 [α-Tocopherol]	Not met
CCCCCc1cc(O)c2c(c1)OC(C)(C)[C@@H]1CCC(C)=C[C@@H]21 [D9 THC, delta-9-tetrahydrocannabinol, reference compound]	Not met
Cc1c(C)c2c(c(C)c1OC(=O)CCC(=O)O)CC[C@@](C)(CCC[C@H](C)CCC[C@H](C)CCCC(C)C)O2 [α-Tocopheryl succinate]	Not met
CCCCCc1cc(O)c2c(c1)OC(C)(CCC=C(C)C)C=C2 (stereo not shown) [CBC, cannabichromene]	Met
CCCCCc1cc(O)c2c(c1)OC(C)(C)c1ccc(C)cc1-2 [CBN, cannabinol]	Met
C=C(C)[C@@H]1CCC(C)=C[C@H]1c1c(O)cc(CCC)cc1O [CBDV, cannabidivarin]	Met
CCCCCc1cc2c(c(O)c1C(=O)O)[C@@H]1C=C(C)CC[C@H]1C(C)(C)O2 [D9 THCA, delta-9-tetrahydrocannabinolic acid]	Met
CCCCCc1cc(O)c(C/C=C(\C)CCC=C(C)C)c(O)c1 [CBG, cannabigerol]	Not met
CCCCCc1cc(O)c2c(c1)OC1(C)CCC3C1C2C3(C)C (stereo not shown) [CBL, cannabicyclol]	Met
CCCc1cc(O)c2c(c1)OC(C)(C)[C@@H]1CCC(C)=C[C@@H]21 [THCV, delta-9-tetrahydrocannabivarin]	Met
C=C(C)[C@@H]1CCC(C)=C[C@H]1c1c(O)cc(CCCCC)cc1O [CBD, cannabidiol, reference compound]	Not met
